Test system: Saccharomyces cerevisiae;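 also: PSI is a weighted mean of sequencing reads over stability bins, variants kept only with over 10 reads, mCherry proximal and sfGFP distal, peptide attached via GGGS linker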
ASSAY_METHOD_TEXT: protein stability index of tFT-peptide fusion (C-terminal peptide) (PSI (0-1 scale)); higher = more stable (slower turnover)
EXPERIMENTAL_SETUP: genetic background: wild type; temperature: 30 C
PROPERTY_LABEL: protein stability index

Read off the recorded protein stability index for SLAGGSSAPSAS
0.673

Give the value of protein stability index reported for the following: LLVTPAPRSTHF
0.648

Give the reported protein stability index for this sequence. IRPFALSPSSLP
0.658

Give protein stability index for CSFFNSFPVFWL
0.7

Query protein stability index for RELGAWSFITSV
0.705

Please report the measured protein stability index for GKILSNNQIFKR
0.702

For the sequence LPGEHSEFNYLL , report protein stability index.
0.72

Tell me its protein stability index given PPPPPPPPFSHS as the entry.
0.712

Give the reported protein stability index for this sequence. LPLPGSFTLNYP
0.733

Determine from records and report protein stability index for LRMSLLVFLLFA
0.314

Give the reported protein stability index for this sequence. TSPGCPFAFITL
0.714

Using known records, supply protein stability index for NHKNANAATLIN
0.455

Supply measured protein stability index of RFTNHPTRQTTG in your reply.
0.676

Give reported protein stability index value for NKMLCTTEGVAA
0.644

State, in one line, measured protein stability index of GLSWSSGGLMVF
0.615

Supply recorded protein stability index for PPHTSPLSPRPP here.
0.658

Determine from records and report protein stability index for QKKKKTTVKKRQ
0.671

Read off the recorded protein stability index for VSSVGILPFRFN
0.72

Name the recorded protein stability index of the sequence listed here: LGRPWRECIQIG
0.66

Assign protein stability index to the following record: LVLDCPISEVLL
0.64

Please report the measured protein stability index for GNRARRSGITRF
0.809

Tell us which protein stability index value is on record for GERLGECGGGVG
0.665

Note protein stability index for the sequence shown: VRVFSLVVCWVV
0.414

Tell me its protein stability index given PRAPRVSTRRPE as the entry.
0.793

Please give the documented protein stability index of GALVGWAMALGW
0.679

Give reported protein stability index value for LPPPPPPPPPPP
0.609

Determine its reported protein stability index: PPPATNSLPGFE
0.672

Return value of protein stability index for input VYCLVLFFSQWC , no commentary.
0.452

Indicate its recorded protein stability index; the sequence in question is DGCSWRSGLVWL
0.695

Kindly indicate its recorded protein stability index. Item: YKMTFVRGQGYE
0.69

Answer with the recorded protein stability index for the sequence listed here: CGEGVCVTGWSR
0.68

Give a short answer stating reported protein stability index for TSFAPPSLPRHS .
0.735

For the sequence FSELTGFMSVRG , give its reported protein stability index.
0.652

Supply reported protein stability index belonging to this sequence: CSKGLSILLLLL
0.41

Answer with reported protein stability index of HYGQRKKEFRLT
0.73

Answer with reported protein stability index of CDYAWSSSASLG
0.56

Recall and state the measured protein stability index for KKNYKNIEKKET .
0.658

Provide measured protein stability index value, entry: LAVSSAPLLSSF
0.723

Query protein stability index for GSTLGGMAWGAR
0.682

Report protein stability index for ARRGLVWTEGGG
0.718

Specify protein stability index for VGGWWAREVVEL and stop.
0.753
